Experiment: Octanol-water partition coefficient, log P of the compound at pH 7.4 by classical shake-flask method
Assay type: physicochemical
I'd be grateful if you could share measured logD for these entries.
Give bare numbers.

Recorded results for 3 compounds are shown here.
smiles-record	logD
CN(C)CCCOc1ccc(C(=O)/C=C/c2ccccc2)cc1	1.59
CCCCN(CCCC)CCCCCOc1ccc(C(=O)/C=C/c2ccccc2)cc1	2.14
CCN(CC)CCCCCOc1ccc(C(=O)/C=C/c2ccccc2)cc1	1.84

With those in mind, consider the next compound.
*Q* I'd like to know its logD. The compound in question is CCN(CC)CCCCCCOc1ccc(C(=O)/C=C/c2ccccc2)cc1
*A* 1.91

* * *

What follows is a record of IC50 for Acetylcholinesterase (Homo sapiens, UniProt P22303).
Answers are plain numbers, in µM.

smiles-record	target-desc	IC50 [µM]
CCCN(CCC)CCOc1ccc(C(=O)/C=C/c2ccccc2)cc1	Acetylcholinesterase (Homo sapiens, UniProt P22303)	64.5
CN(C)CCCCOc1ccc(C(=O)/C=C/c2ccccc2)cc1	Acetylcholinesterase (Homo sapiens, UniProt P22303)	8.95

Next:
*Q* Param item = CN(C)CCCCCCOc1ccc(C(=O)/C=C/c2ccccc2)cc1 ; retrieve measured IC50.
*A* 14.2

* * *

The listing below reports pIC50 for compounds tested on Cholinesterase (Homo sapiens, UniProt P06276).
Sequence (P06276 whole entry): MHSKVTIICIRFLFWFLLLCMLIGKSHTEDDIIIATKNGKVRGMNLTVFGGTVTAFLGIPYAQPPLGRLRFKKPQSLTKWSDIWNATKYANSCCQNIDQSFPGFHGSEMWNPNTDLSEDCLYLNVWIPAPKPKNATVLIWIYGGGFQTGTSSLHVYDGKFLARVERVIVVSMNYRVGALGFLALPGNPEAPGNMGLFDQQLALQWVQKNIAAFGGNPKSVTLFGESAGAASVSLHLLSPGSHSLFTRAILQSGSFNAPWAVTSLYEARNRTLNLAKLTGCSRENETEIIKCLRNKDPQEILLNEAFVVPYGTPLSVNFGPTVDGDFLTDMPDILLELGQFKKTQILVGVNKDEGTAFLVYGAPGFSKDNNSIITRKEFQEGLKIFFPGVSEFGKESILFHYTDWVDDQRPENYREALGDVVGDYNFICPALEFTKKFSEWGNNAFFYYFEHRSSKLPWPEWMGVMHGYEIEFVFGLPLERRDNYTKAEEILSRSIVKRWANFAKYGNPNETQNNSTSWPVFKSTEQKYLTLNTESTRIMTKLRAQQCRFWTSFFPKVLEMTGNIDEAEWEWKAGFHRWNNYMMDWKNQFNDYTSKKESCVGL
Give bare numbers, as −log10 of the molar value.

Record excerpt, results attached:
smiles-record	pIC50
CCN(CC)CCCOc1ccc(C(=O)/C=C/c2ccccc2)cc1	4.70
CN(C)CCOc1ccc(C(=O)/C=C/c2ccccc2)cc1	4.69
CCN(CC)CCCCCCOc1ccc(C(=O)/C=C/c2ccccc2)cc1	4.73

Dear colleague, could you send me pIC50 for each of the items below? Thanks.
1. CCN(CC)CCCCCOc1ccc(C(=O)/C=C/c2ccccc2)cc1
2. CCN(CC)CCCCOc1ccc(C(=O)/C=C/c2ccccc2)cc1
3. CN(C)CCCCOc1ccc(C(=O)/C=C/c2ccccc2)cc1
4. CN(C)CCCCCCOc1ccc(C(=O)/C=C/c2ccccc2)cc1

*A*
1. 4.58
2. 4.99
3. 4.93
4. 4.98

Record pIC50 for all entries; do not skip any.
1. CCCCN(CCCC)CCCCOc1ccc(C(=O)/C=C/c2ccccc2)cc1
2. CCCCN(CCCC)CCCCCCOc1ccc(C(=O)/C=C/c2ccccc2)cc1
3. CCCCN(CCCC)CCOc1ccc(C(=O)/C=C/c2ccccc2)cc1
4. CN(C)CCCOc1ccc(C(=O)/C=C/c2ccccc2)cc1
5. CCN(CC)CCOc1ccc(C(=O)/C=C/c2ccccc2)cc1
6. CCCN(CCC)CCCCOc1ccc(C(=O)/C=C/c2ccccc2)cc1
7. CCCCN(CCCC)CCCCCOc1ccc(C(=O)/C=C/c2ccccc2)cc1

*A*
[4.38, 4.12, 3.55, 4.49, 4.50, 5.05, 4.01]

Where these numbers come from: ChEMBL document CHEMBL3352241
